Assay: OVCAR4 cell viability loss – plate reader, dry powder, SA11, cytotoxicity control for PAX8 inhibitor project, dose response (AID 743150)
Conditions: series mostly up to 35 µM
Entries with a potency or affinity are not part of this list. The source made the active and inactive calls. How the calls were made is not given here.

compound | outcome
COc1cccc(C#Cc2ccc([C@@H]3[C@@H](C#N)N(C(=O)C4CCCCC4)[C@H]3CO)cc2)c1 | inactive
N#C[C@H]1N[C@H](CO)[C@@H]1c1ccc(C#Cc2ccccc2F)cc1 | inactive
COc1ccc(S(=O)(=O)Nc2ccc3c(c2)CC(=O)N([C@@H](C)CO)C[C@@H](C)[C@@H](CN(C)Cc2ccc(-c4ccccc4)cc2)O3)cc1 | inactive
C[C@@H]1CN([C@@H](C)CO)S(=O)(=O)c2ccc(C#Cc3ccncc3)cc2O[C@H]1CN(C)C(=O)Nc1ccc2c(c1)OCO2 | inactive
N#C[C@@H]1[C@@H](c2ccc(-c3cccc(F)c3)cc2)[C@H](CO)N1C(=O)NC1CCCC1 | inactive
CCCC#Cc1ccc([C@H]2[C@@H](C#N)N(C(=O)C3CCCCC3)[C@H]2CO)cc1 | inactive
CC(=O)N1CCOc2ccc(S(=O)(=O)N3CCN(c4cccc(C(F)(F)F)c4)CC3)cc21 | inactive
CC1(C)CC(=O)c2sc(NC(=O)CCS(=O)(=O)c3ccccc3)nc2C1 | inactive
C[C@@H]1CN([C@H](C)CO)C(=O)CCCn2cc(nn2)CO[C@H]1CN(C)C(=O)Nc1ccc(-c2cccs2)cc1 | inactive
O=C(CN1C(=O)c2ccccc2S1(=O)=O)c1ccccc1Cl | inactive
C[C@@H]1CN([C@@H](C)CO)S(=O)(=O)c2ccc(C#C[C@@H](C)O)cc2O[C@H]1CN(C)Cc1ccc(-c2ccccc2)cc1 | inactive
COc1cccc(C#Cc2ccc([C@H]3[C@@H](CO)N(C(=O)c4ccccn4)[C@H]3C#N)cc2)c1 | inactive
O=C(C[C@H]1CC[C@H]2[C@@H](COC[C@@H](O)CN2S(=O)(=O)c2cccc(Cl)c2)O1)Nc1ccc(-c2ccccc2)cc1 | inactive
O=C1/C(=C/c2cccc(Br)c2)SC(=S)N1CCC(=O)N(CCO)c1ccccc1 | inactive
O=C1/C(=C/c2ccccc2)SC(=S)N1CC(=O)N1CCCCC1c1cccnc1 (stereo not drawn) | inactive
COc1cccc(C#Cc2ccc([C@@H]3[C@H](C#N)N(C(=O)c4ccccn4)[C@H]3CO)cc2)c1 | inactive
COCC(=O)N1[C@H](CO)[C@H](c2ccc(-c3cccnc3)cc2)[C@@H]1C#N | inactive
O=C(/C=C/c1ccccc1)Nc1cccc(C(=O)O)c1 | inactive
